- TGT: T1, human interleukin 13 receptor subunit alpha 2 (IL-13RA2) (human, UniProt Q14627 27-380)
- T1 sequence (looked up): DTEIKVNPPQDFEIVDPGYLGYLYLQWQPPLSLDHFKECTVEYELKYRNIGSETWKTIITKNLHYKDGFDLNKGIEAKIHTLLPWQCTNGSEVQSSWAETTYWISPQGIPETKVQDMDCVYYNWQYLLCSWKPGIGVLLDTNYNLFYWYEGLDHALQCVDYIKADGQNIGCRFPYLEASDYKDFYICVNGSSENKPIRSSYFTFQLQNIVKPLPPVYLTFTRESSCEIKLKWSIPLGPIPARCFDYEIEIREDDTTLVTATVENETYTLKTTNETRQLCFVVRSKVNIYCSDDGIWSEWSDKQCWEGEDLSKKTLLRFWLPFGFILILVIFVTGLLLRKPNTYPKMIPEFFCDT
- TEST_DETAILS: cell-based or functional assay
MEASURE_NAME: internalization Top (MFI), CHO-K1/H_IL-13RA2 cells
Expressed in MFI, but write only the number.

Take a look at these entries with their results.
xi34A5G9 hIgG1 (antibody, V domains shown) VH: EVHLQQSGPELVKPGASVKISCKTSGYTFTEYTMHWVKQSHGKSLEWIGRINPNNGIAEYKQTFKDKATLAVDKSSSTAYMEFRSLTSEDSAVYYCARGEGYGYWFAYWGQGTLVTVSA VL: DIQMTQSPASLSASVGETVTITCRTSDNIYSYLAWYQQRQGKSPQLLVSNARTLAEGVPSRFSGSGSGTQFSLKINSLQPEDFGIYYCQHHSGTPFTFGSGTNLEIE : 13900
xi74B5E4 hIgG1 (antibody, V domains shown) VH: EVKLVESGGGLVKPGGSLRLSCAASGFTFSTYGMSWVRQTPEKRLEWVATISGGGSYTYYPDSVKGRFTISRDNAKNNLYLQMSSLRSEDTALYYCARRDLRSAMDYWGQGTSVTVSS VL: DIVMTQSQKFMSTSVGDRVSVTCKASQNVDINVAWYQQKPGQSPKALIYSASYRYSGVPDRFTGSGSGTDFTLTISNVQSEDLAEYFCQQYNTYPLTFGGGTKLEIK : 17700

Would you mind telling me what internalization Top (MFI), CHO-K1/H_IL-13RA2 cells value was observed for xi62F6A8 hIgG1 (antibody, V domains shown) VH: QVQIQQSGAELARPGASVMLSCKASGYTFTDYWMQWIKQRPGQGLEGIGAIYPGDGDTAYNQKFRGKATLTADKSSSTAYMQLNSLASEDSAVYFCARGATLLRPFPFWGQGTLVTVSA VL: DIVMTQSHKFMSTSVGDRVSITCKASQDVSTAVAWYQQKPGQSPKLLIYSASYRYAGVPDRFTGSGSGTDFTFTISSVQAEDLAVYSCQQHYSIPPTFGGGTKLEIK ?
15900
